Please respond with reported Vd for every item in the list.
test.summary: Volume of distribution in rat at 10 umol/kg, iv
Type: ADME, organism-based
measurement.context: in vivo, read-out: Vbeta
API: value field is a number in L/kg; no unit string.

Asked: Item "O=C(NCc1ccc(C(F)(F)F)cc1)Nc1cccc2cnccc12" has what recorded Vd?
Given back: 0.6

Asked: Also "C[C@@H](NC(=O)Nc1cccc2[nH]ncc12)c1ccc(C(F)(F)F)cc1" , if possible.
Given back: 2.9

Asked: Also CC(NC(=O)Nc1cccc2cnccc12)c1ccc(C(F)(F)F)cc1 (stereo not drawn) , if possible.
Given back: 1.1

----------
test.summary: Plasma clearance in dog at 10 umol/kg, iv
Type: ADME, organism-based, Canis lupus familiaris
endpoint.name: clearance (mL/min/kg)
API: value field is a number in mL/min/kg; no unit string.

Asked: Item "O=C(NCc1ccc(C(F)(F)F)cc1)Nc1cccc2cnccc12" has what recorded clearance?
Given back: 6.67

Asked: Also CC(NC(=O)Nc1cccc2cnccc12)c1ccc(C(F)(F)F)cc1 (configuration not stated) , if possible.
Given back: 8.33

----------
test.summary: Bioavailability in dog at 10 umol/kg, po
Type: ADME, organism-based, Canis lupus familiaris
measurement.context: in vivo
Please respond with reported bioavailability for every item in the list.
API: value field is a number in %; no unit string.

Asked: Item "O=C(NCc1ccc(C(F)(F)F)cc1)Nc1cccc2cnccc12" has what recorded bioavailability?
Given back: 32

Asked: Also CC(NC(=O)Nc1cccc2cnccc12)c1ccc(C(F)(F)F)cc1 (configuration not stated) , if possible.
Given back: 98

----------
tested.target: Transient receptor potential cation channel subfamily V member 1 (Homo sapiens)
Sequence (Q8NER1 whole entry): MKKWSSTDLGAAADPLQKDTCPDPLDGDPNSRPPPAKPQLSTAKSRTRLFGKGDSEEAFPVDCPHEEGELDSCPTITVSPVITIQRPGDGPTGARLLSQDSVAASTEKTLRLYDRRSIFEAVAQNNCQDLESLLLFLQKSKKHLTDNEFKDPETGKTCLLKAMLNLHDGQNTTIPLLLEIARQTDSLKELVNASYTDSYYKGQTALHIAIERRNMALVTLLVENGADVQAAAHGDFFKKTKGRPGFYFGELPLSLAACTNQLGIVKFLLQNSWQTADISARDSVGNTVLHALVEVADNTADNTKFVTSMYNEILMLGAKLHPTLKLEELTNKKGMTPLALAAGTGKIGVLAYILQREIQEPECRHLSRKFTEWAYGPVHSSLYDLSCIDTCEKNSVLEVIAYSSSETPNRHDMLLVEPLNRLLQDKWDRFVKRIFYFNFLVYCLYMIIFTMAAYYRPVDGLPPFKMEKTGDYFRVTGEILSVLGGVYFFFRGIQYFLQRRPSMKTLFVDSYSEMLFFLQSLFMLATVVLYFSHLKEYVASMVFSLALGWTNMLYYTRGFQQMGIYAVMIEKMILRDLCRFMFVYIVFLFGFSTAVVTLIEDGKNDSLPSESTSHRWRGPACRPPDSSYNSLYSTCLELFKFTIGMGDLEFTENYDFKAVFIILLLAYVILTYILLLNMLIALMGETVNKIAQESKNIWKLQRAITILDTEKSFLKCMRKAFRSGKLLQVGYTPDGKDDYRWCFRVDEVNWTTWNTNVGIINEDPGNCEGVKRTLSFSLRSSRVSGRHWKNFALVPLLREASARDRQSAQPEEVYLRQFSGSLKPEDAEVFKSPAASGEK
test.summary: Antagonist activity at human TRPV1 by calcium influx assay
Threshold check on IC50: strictly below 100 nM is MET; on or above 100 nM is NOT MET.

Asked: Here's an entry: CN(C)CC(NC(=O)Nc1cccc2cnccc12)c1ccccc1 (stereo not given) . Is its IC50 below 100 nM?
Given back: NOT MET

Asked: Also O=C(Nc1cccc2cnccc12)NC(c1ccc(C(F)(F)F)cc1)C1CC1 (stereo not given) , if possible.
Given back: NOT MET

Asked: Also Cc1cc(C(C)(C)C)ccc1C(C)NC(=O)Nc1cccc2cnccc12 (stereo not given) , if possible.
Given back: MET

Asked: Also "C[C@@H](NC(=O)Nc1cccc2[nH]ncc12)c1ccc(C(F)(F)F)cc1" , if possible.
Given back: MET

Asked: Also O=C(Nc1cccc2cnccc12)NC(c1ccccc1)c1ccc(C(F)(F)F)cc1 (stereo not given) , if possible.
Given back: NOT MET

Asked: Also "CC(C)(NC(=O)Nc1cccc2cnccc12)c1ccc(Cl)cc1" , if possible.
Given back: NOT MET

Asked: Also CCC(NC(=O)Nc1cccc2cnccc12)c1ccccc1 (stereo not given) , if possible.
Given back: NOT MET

Asked: Also N#CCC(NC(=O)Nc1cccc2cnccc12)c1ccccc1 (stereo not given) , if possible.
Given back: NOT MET

Asked: Also O=C(Nc1cccc2cnccc12)NC(c1ccc(C(F)(F)F)cc1)C1CCCC1 (stereo not given) , if possible.
Given back: NOT MET

Asked: Also CCc1cc(C(C)(C)C)ccc1C(C)NC(=O)Nc1cccc2cnccc12 (stereo not given) , if possible.
Given back: MET

Asked: Also O=C(Nc1cccc2cnccc12)NC(c1ccccc1)c1ccc(N2CCCCC2)cc1 (stereo not given) , if possible.
Given back: NOT MET

Asked: Also CC(NC(=O)Nc1cccc2cnccc12)c1ccc(Br)cc1 (stereo not given) , if possible.
Given back: MET

Asked: Also "CC(C)(NC(=O)Nc1cccc2cnccc12)c1ccc(C(F)(F)F)cc1" , if possible.
Given back: MET

Asked: Also CCC(NC(=O)Nc1cccc2cnccc12)c1ccc(C(F)(F)F)c(F)c1 (stereo not given) , if possible.
Given back: NOT MET

Asked: Also "C[C@H](NC(=O)Nc1cccc2[nH]ncc12)c1cccc2ccccc12" , if possible.
Given back: NOT MET
